measurement protocol: Dissociation constant, pKa of the compound
Type: physicochemical
Below is a list of entries, each paired with its recorded pKa value.

Below, 2 compounds whose answers are already recorded.
# pKa of O=S(=O)(Nc1cc(Sc2cccc3cccnc23)c(O)c2ccccc12)c1ccc(F)cc1 = 3.48

Lab book: pKa of COCCn1c(C)c(C)c(S(=O)(=O)c2ccc(Cl)cc2)c1N noted as -0.59

More entries:
The reported pKa of the compound Cc1ccc(Nc2c(S(=O)(=O)c3ccccc3)cnc3ccc(Cl)cc23)cc1 was 2.34

So for Cc1ccc(S(=O)(=O)N/N=C2\CCCc3c2[nH]c2ccc(Cl)cc32)cc1 , the logged pKa turned out to be -0.33

For reference, reported pKa for Cc1ccc(S(=O)(=O)c2cnc3ccc(F)cc3c2SCc2ccc(Cl)cc2)cc1 stands at -0.25
